The measured values listed here are drawn from paper PMC7374751.

MEASURED_TARGET: T1, low-density lipoprotein receptor-related protein 1 (LRP-1) (UniProt Q07954 20-4544)
T1 construct: low-density lipoprotein receptor-related protein 1 (LRP-1), bought from Biomac; source: bought: Biomac (Leipzig, Germany)
T1 sequence (Q07954 20-4544): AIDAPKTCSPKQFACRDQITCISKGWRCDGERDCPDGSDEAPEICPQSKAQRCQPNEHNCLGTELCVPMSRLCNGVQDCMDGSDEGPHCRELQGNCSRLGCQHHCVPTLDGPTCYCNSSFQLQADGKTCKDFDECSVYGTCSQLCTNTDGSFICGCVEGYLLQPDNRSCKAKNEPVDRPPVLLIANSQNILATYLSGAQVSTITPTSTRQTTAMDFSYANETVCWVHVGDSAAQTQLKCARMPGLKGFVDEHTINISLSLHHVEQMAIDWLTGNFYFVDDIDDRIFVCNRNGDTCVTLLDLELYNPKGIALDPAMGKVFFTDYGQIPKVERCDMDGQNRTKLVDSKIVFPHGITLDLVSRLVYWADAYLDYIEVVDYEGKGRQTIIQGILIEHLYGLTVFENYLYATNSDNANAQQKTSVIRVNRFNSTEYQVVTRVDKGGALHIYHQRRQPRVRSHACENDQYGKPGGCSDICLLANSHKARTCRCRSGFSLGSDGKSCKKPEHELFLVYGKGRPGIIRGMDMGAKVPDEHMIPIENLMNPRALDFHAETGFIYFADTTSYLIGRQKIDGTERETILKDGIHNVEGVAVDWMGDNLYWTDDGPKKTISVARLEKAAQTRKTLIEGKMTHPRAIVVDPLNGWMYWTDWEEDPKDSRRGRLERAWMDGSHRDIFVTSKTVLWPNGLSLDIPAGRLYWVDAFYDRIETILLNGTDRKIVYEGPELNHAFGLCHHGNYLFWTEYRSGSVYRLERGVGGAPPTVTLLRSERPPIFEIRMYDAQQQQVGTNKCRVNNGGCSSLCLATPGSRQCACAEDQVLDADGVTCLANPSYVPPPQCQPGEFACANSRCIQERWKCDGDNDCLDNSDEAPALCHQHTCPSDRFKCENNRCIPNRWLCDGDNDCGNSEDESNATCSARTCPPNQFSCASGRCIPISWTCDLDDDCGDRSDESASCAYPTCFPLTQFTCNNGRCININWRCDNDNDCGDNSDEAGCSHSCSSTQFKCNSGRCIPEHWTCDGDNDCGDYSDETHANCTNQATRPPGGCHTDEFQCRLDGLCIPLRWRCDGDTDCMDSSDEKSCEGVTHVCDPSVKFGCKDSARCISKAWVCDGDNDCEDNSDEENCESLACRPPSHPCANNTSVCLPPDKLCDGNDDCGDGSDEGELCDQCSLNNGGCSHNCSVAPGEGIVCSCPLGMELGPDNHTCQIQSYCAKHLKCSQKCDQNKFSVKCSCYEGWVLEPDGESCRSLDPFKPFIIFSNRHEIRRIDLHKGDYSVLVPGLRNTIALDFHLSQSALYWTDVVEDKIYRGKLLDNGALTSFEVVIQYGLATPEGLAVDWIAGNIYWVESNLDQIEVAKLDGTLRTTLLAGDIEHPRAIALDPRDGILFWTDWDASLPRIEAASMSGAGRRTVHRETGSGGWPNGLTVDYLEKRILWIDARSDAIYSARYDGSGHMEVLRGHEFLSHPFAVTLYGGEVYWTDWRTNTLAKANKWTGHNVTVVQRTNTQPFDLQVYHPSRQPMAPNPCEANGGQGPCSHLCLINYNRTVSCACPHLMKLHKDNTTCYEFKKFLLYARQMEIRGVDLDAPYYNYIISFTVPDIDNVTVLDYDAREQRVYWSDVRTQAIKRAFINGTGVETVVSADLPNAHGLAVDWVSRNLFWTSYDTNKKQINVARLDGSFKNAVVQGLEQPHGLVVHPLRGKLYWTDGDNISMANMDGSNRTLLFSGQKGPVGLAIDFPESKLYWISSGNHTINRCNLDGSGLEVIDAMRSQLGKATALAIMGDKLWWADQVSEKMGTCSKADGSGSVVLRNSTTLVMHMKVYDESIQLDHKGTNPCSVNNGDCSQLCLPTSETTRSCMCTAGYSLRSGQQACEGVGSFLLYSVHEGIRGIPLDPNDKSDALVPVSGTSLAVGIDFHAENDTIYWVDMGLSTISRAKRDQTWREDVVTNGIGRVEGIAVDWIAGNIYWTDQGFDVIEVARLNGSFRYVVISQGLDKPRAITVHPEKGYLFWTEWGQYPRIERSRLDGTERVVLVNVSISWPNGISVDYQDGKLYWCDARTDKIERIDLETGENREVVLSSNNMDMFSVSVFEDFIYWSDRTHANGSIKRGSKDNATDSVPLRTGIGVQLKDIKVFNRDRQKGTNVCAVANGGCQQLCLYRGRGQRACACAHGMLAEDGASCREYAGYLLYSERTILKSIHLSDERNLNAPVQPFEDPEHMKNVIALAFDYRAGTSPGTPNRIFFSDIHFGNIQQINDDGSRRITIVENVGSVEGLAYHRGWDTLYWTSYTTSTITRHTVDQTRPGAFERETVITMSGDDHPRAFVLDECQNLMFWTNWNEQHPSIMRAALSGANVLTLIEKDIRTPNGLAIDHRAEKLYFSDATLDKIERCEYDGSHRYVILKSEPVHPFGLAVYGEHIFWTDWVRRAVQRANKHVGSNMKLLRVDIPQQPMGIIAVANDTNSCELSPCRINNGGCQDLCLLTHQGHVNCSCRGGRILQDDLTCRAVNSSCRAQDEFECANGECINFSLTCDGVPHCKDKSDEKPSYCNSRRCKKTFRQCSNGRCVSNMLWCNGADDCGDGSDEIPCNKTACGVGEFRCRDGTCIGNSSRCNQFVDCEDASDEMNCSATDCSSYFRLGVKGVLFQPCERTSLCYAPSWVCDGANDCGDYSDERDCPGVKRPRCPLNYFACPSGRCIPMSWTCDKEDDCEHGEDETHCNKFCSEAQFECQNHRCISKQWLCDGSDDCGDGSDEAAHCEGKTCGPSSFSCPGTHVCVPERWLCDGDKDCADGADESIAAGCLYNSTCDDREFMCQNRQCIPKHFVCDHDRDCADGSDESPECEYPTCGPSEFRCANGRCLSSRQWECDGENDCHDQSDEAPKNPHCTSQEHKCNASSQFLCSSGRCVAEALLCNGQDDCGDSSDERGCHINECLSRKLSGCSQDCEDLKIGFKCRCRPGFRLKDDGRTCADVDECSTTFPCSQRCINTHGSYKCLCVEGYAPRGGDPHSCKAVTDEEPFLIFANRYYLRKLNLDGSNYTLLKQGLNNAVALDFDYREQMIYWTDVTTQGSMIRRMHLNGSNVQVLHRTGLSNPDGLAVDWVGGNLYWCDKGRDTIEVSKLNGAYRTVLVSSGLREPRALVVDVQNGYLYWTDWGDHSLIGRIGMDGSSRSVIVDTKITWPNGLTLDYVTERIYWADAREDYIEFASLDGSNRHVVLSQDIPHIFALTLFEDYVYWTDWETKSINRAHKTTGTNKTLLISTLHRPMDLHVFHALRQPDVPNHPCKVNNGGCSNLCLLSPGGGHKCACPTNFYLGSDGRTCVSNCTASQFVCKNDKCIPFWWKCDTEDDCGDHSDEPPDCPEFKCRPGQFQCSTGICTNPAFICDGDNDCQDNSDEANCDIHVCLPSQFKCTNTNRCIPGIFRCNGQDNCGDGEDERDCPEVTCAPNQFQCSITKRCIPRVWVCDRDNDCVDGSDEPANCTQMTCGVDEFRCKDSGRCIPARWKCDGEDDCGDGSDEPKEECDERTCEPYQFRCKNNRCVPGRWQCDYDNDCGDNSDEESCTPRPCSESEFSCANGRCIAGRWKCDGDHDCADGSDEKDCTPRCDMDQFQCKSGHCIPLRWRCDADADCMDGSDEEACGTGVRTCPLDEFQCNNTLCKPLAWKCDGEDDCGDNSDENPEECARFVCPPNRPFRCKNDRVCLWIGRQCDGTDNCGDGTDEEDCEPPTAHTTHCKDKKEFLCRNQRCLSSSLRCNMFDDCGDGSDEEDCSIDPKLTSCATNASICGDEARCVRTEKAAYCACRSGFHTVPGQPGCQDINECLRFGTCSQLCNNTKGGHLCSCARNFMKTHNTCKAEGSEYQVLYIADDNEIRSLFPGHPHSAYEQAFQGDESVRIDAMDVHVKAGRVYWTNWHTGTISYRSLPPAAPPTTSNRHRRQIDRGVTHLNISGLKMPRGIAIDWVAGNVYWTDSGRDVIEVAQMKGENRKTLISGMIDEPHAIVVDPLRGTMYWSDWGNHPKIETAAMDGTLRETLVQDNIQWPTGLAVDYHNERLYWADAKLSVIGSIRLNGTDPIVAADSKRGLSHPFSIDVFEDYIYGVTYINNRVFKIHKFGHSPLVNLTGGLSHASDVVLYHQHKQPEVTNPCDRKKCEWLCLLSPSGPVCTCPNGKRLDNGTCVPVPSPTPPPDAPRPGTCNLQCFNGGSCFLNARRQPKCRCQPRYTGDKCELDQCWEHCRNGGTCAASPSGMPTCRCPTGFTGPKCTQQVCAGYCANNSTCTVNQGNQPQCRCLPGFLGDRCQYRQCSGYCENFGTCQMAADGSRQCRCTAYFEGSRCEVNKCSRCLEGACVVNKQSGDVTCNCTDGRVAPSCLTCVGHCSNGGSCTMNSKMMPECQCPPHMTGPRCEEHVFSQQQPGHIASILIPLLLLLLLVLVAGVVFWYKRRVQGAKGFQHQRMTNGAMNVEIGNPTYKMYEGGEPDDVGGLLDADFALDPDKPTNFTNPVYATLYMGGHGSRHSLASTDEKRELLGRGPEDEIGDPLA
PROTOCOL_NOTES: SPR; BIAcore T200; LRP-1 immobilised on a CM5 chip by amine coupling (3000 RU); 25 °C; 150 mM NaCl, 10 mM CaCl2, 50 mM Tris-HCl, 0.01% Tween-20, pH 7.5; 30 μl/min; ligands or pre-formed complexes injected; one-site binding model; triplicate
RUN_PARAMETERS: both partners purified
Can you tell me koff for the items I'm about to list?
One number for each entry, in s⁻¹.

Receptor-associated protein (RAP), recombinant His-tagged (natural protein, UniProt P30533 35-357, looked up) YSREKNQPKPSPKRESGEEFRMEKLNQLWEKAQRLHLPPVRLAELHADLKIQERDELAWKKLKLDGLDEDGEKEARLIRNLNVILAKYGLDGKKDARQVTSNSLSGTQEDGLDDPRLEKLWHKAKTSGKFSGEELDKLWREFLHHKEKVHEYNVLLETLSRTEEIHENVISPSDLSDIKGSVLHSRHTELKEKLRSINQGLDRLRRVSHQGYSTEAEFEEPRVIDLWDLAQSANLTDKELEAFREELKHFEAKIEKHNHYQKQLEIAHEKLRHAESVGDGERVSRSREKHALLEGRTKELGYTVKKHLQDLSGRISRARHNEL; 0.00419

Each of the following entries comes with a recorded value; kindly state koff for each.
1. MMP-1ΔC/TIMP-3 complex (complex, catalytic domain of human MMP-1; pro-domain removed with APMA; as m8; as m3) chain 1: FVLTEGNPRWEQTHLTYRIENYTPDLPRADVDHAIEKAFQLWSNVTPLTFTKVSEGQADIMISFVRGDHRDNSPFDGPGGNLAHAFQPGPGIGGDAHFDEDERWTNNFREYNLHRVAAHELGHSLGLSHSTDIGALMYPSYTFSGDVQLAQDDIDGIQAIYGRSQNPVQP chain 2: CTCSPSHPQDAFCNSDIVIRAKVVGKKLVKEGPFGTLVYTIKQMKMYRGFTKMPHVQYIHTEASESLCGLKLEVNKYQYLLTGRVYDGKMYTGLCNFVERWDQLTLSQRKGLNYRYHLGCNCKIKSCYYLPCFVTSKNECLWTDMLSNFGYPGYQSKHYACIRQKGGYCSWYRGWAPPDKSIINATDP
2. FLAG-tagged TIMP-3 (natural protein, UniProt P35625 24-211, looked up, also called T3; [35S]TIMP-3) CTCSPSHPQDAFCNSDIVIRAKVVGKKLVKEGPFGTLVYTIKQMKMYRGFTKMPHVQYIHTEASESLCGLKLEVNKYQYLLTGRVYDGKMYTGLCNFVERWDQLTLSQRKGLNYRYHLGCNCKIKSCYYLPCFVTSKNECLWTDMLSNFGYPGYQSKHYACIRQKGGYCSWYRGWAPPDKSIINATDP

1: 0.00254; 2: 0.00389
